Values from patent US4331670A

- Tested on: Rhizoctonia solani
- measurement protocol: whole plant or invertebrate
- Type: in vivo, Rhizoctonia solani (rice plant, Chukyo Asahi)
- condition label: in Oryza sativa, 120 h, read-out: Preventive value
measure name: pest or weed control at 100 ppm (%)
Answers are plain numbers, in %.

• O=[N+]([O-])c1cc(C(F)(F)F)c(Cl)c([N+](=O)[O-])c1Nc1ncc(Br)cc1C(F)(F)F = 95
• O=[N+]([O-])c1cc(C(F)(F)F)c(Cl)c([N+](=O)[O-])c1Nc1ncc(C(F)(F)F)cc1Cl = 100
• O=[N+]([O-])c1cc(C(F)(F)F)cc([N+](=O)[O-])c1Nc1nc(Cl)c(Br)cc1C(F)(F)F = 100
• O=[N+]([O-])c1cc(C(F)(F)F)c(Cl)c([N+](=O)[O-])c1Nc1nc(Cl)c(C(F)(F)F)cc1Br = 100

Look at each compound and report its pest or weed control at 100 ppm.
1. CC(C)COc1c(C(F)(F)F)cc([N+](=O)[O-])c(Nc2ncc(C(F)(F)F)cc2Cl)c1[N+](=O)[O-]
2. O=[N+]([O-])c1cc(C(F)(F)F)c(Cl)c([N+](=O)[O-])c1Nc1nc(Cl)c(C(F)(F)F)cc1Cl
3. O=[N+]([O-])c1cc(C(F)(F)F)cc([N+](=O)[O-])c1Nc1c(Cl)cncc1Cl

a:
1. 95
2. 100
3. 100
